Below, each entry is listed with its recorded Activity.
- MEASUREMENT_TARGET: Hypoxia-inducible factor 1-alpha (Homo sapiens) (UniProt Q16665)
- Sequence (Q16665 whole entry, looked up): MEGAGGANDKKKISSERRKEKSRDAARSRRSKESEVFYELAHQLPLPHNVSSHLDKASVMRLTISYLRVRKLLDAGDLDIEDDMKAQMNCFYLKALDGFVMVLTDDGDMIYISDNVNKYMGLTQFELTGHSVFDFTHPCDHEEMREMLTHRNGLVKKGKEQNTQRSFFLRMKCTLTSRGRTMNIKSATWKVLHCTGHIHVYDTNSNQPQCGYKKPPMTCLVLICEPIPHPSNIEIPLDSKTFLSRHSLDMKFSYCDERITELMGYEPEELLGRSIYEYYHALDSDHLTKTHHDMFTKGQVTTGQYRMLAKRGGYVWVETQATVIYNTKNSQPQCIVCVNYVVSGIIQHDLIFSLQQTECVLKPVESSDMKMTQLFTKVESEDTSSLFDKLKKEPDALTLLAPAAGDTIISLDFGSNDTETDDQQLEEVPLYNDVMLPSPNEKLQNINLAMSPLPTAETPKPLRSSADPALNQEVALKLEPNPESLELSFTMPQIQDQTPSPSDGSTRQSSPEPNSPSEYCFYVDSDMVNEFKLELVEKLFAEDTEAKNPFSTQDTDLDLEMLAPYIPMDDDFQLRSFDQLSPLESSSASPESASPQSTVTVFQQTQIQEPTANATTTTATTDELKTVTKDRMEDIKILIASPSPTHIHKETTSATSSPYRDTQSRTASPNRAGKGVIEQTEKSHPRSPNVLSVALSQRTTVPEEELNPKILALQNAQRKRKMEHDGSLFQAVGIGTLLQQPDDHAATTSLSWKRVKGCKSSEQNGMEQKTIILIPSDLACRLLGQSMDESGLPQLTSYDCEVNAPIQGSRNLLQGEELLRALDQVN
- ASSAY_COMMENT: Stabilization of HIF-1alpha in human HeLa cells at 50 uM incubated for 2 hrs by Western blot analysis relative to VH298
- Type: cell-based
PROPERTY: Activity (%)

{"columns": ["LINE_NOTATION", "NUMERIC_RESULT"],
 "data": [
  ["COc1cc(-c2scnc2C)c(F)cc1CNC(=O)[C@@H]1C[C@@H](O)CN1C(=O)[C@@H](NC(=O)C1(F)CC1)C(C)(C)C", 95],
  ["Cc1ncsc1-c1ccc([C@H](C)NC(=O)[C@@H]2C[C@@H](O)CN2C(=O)[C@@H](NC(=O)C2(F)CC2)C(C)(C)C)cc1F", 120],
  ["Cc1ncsc1-c1ccc([C@H](C)NC(=O)[C@@H]2C[C@@H](O)CN2C(=O)[C@@H](NC(=O)C2(C#N)CC2)C(C)(C)C)cc1F", 105],
  ["Cc1ncsc1-c1ccc(CNC(=O)[C@@H]2C[C@@H](O)CN2C(=O)[C@@H](NC(=O)C2(C#N)CC2)C(C)(C)C)cc1F", 83],
  ["Cc1cc(-c2scnc2C)ccc1CNC(=O)[C@@H]1C[C@@H](O)CN1C(=O)[C@@H](NC(=O)C1(F)CC1)C(C)(C)C", 116],
  ["Cc1cc(-c2scnc2C)c(F)cc1CNC(=O)[C@@H]1C[C@@H](O)CN1C(=O)[C@@H](NC(=O)C1(F)CC1)C(C)(C)C", 124],
  ["Cc1cc(-c2scnc2C)ccc1[C@H](C)NC(=O)[C@@H]1C[C@@H](O)CN1C(=O)[C@@H](NC(=O)C1(C#N)CC1)C(C)(C)C", 155],
  ["Cc1cc(-c2scnc2C)ccc1[C@H](C)NC(=O)[C@@H]1C[C@@H](O)CN1C(=O)[C@@H](NC(=O)C1(F)CC1)C(C)(C)C", 182],
  ["Cc1ncsc1-c1ccc(CNC(=O)[C@@H]2C[C@@H](O)CN2C(=O)[C@@H](NC(=O)C2(F)CC2)C(C)(C)C)cc1F", 107],
  ["COc1cc(-c2scnc2C)c(F)cc1[C@H](C)NC(=O)[C@@H]1C[C@@H](O)CN1C(=O)[C@@H](NC(=O)C1(F)CC1)C(C)(C)C", 128],
  ["Cc1cc(-c2scnc2C)ccc1CNC(=O)[C@@H]1C[C@@H](O)CN1C(=O)[C@@H](NC(=O)C1(C#N)CC1)C(C)(C)C", 89],
  ["Cc1cc(-c2scnc2C)c(F)cc1[C@H](C)NC(=O)[C@@H]1C[C@@H](O)CN1C(=O)[C@@H](NC(=O)C1(F)CC1)C(C)(C)C", 155]
]}

Cited source: ChEMBL document CHEMBL5365485
